For each entry below, report its pKd value.
Target: T1, p2S (p2 peptide biotinylated through its free cysteine) (human, also: biotinylated (maleimide PEO2-biotin) on one of the two Cys, which one not given here)
T1 construct: The peptide has two cysteines; also called b-p2S
T1 peptide: RPRYACCPGWKRT
Assay: SPR (BIAcore-2000), IgG injected over immobilized p2S peptide;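 note: CM5 chip with immobilized peptide, IgG at 0.5–1000 nM in PBST, 3 min association and 3.5 min dissociation, reference-cell subtracted, rates fitted by 1:1 Langmuir model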
Where no end group is shown, it is not given here.
Give bare numbers, as −log10 of the molar value.

Batch lookup, pKd per entry.
1. 4F11.v3 IgG (antibody, name in Kabat numbering, V domains shown, IgG; Kabat numbering) VH: EVQLVESGGGLVQPGGSLRLSCAASGHTFTTYGMSWVRQAPGKGLEWVGWINTHSGVPTYADDFKGRFTISRDNSKNTVYLQMNSLRAEDTAVYYCARLGSSAVDYWGQGTLVTVSS VL: DIQMTQSPSSLSASVGDRVTITCKASQSVDYDGDSYMSWYQQKPGKAPKLLIYGASNLESGVPSRFSGSGSGTDFTLTISSLQPEDFATYYCQQNNEDPYTFGQGTKVEIKR
2. 4F11.v9 IgG (antibody, V domains shown, IgG; Kabat numbering) VH: EVQLVESGGGLVQPGGSLRLSCAASGHTRTTYGMSWVRQAPGKGLEWVGWINTHSGVPTYADDFKGRFTISRDNSKNTVYLQMNSLRAEDTAVYYCARLGSSAVDYWGQGTLVTVSS VL: DIQMTQSPSSLSASVGDRVTITCKASQSVDYDGDSYMSWYQQKPGKAPKLLIYGASNLESGVPSRFSGSGSGTDFTLTISSLQPEDFATYYCQQNNEDPYTFGQGTKVEIK
3. 4F11.v6 IgG (antibody, V domains shown, IgG; Kabat numbering) VH: EVQLVESGGGLVQPGGSLRLSCAASGHTFTTYGMSWVRQAPGKGLEWVGWINTHSGVPTYADDFKGRFTISRDNSKNTVYLQMNSLRAEDTAVYYCARLGSSAVDYWGQGTLVTVSS VL: DIQMTQSPSSLSASVGDRVTITCKASQSVDYDGDSYMSWYQQKPGKAPKLLIYGASYLESGVPSRFSGSGSGTDFTLTISSLQPEDFATYYCQQNNEDPYTFGQGTKVEIK

Result:
1: 7.46; 2: 8.05; 3: 7.71
